assay: mouse plasma pharmacokinetic parameters, late-stage follow-up, in vivo study for V1a-R antagonist project, LC-MS (AID 743028); details: C57Bl6 mouse plasma PK, IV/PO, IV dosing 1 mg/kg, mean residence time

{"smilesStr": "O=C(C1CCN(c2ccc(Cl)cn2)CC1)N(CC1CC1)c1ccc(Cl)cc1", "MRT inf / h": 1.65}

* * *

assay: mouse plasma pharmacokinetic parameters, late-stage follow-up, in vivo study for V1a-R antagonist project, LC-MS (AID 743028); details: C57Bl6 mouse plasma PK, IV/PO, IV dosing 1 mg/kg, volume of distribution

{"smilesStr": "O=C(C1CCN(c2ccc(Cl)cn2)CC1)N(CC1CC1)c1ccc(Cl)cc1", "unitName": "L/kg", "Vss": 0.26}

* * *

assay: mouse plasma pharmacokinetic parameters, late-stage follow-up, in vivo study for V1a-R antagonist project, LC-MS (AID 743028); settings: C57Bl6 mouse plasma PK, IV/PO, IV dosing 1 mg/kg
reportedProperty: half-life

{"smilesStr": "O=C(C1CCN(c2ccc(Cl)cn2)CC1)N(CC1CC1)c1ccc(Cl)cc1", "measuredResult": "2.22 h"}

* * *

assay: mouse plasma pharmacokinetic parameters, late-stage follow-up, in vivo study for V1a-R antagonist project, LC-MS (AID 743028); conditions: C57Bl6 mouse plasma PK, IV/PO, PO dosing 10 mg/kg

{"smilesStr": "O=C(C1CCN(c2ccc(Cl)cn2)CC1)N(CC1CC1)c1ccc(Cl)cc1", "half-life": "2.88 h"}

* * *

test: mouse plasma pharmacokinetic parameters, late-stage follow-up, in vivo study for V1a-R antagonist project, LC-MS (AID 743028); settings: C57Bl6 mouse plasma PK, IV/PO, IV dosing 1 mg/kg, time to peak
reportedProperty: Tmax (min)

{"smilesStr": "O=C(C1CCN(c2ccc(Cl)cn2)CC1)N(CC1CC1)c1ccc(Cl)cc1", "reportedProperty": "Tmax", "unitName": "min", "measuredResult": 4.8}

* * *

assay: mouse plasma pharmacokinetic parameters, late-stage follow-up, in vivo study for V1a-R antagonist project, LC-MS (AID 743028); conditions: C57Bl6 mouse plasma PK, IV/PO, PO dosing 10 mg/kg, plasma exposure

{"smilesStr": "O=C(C1CCN(c2ccc(Cl)cn2)CC1)N(CC1CC1)c1ccc(Cl)cc1", "AUC last": "10.5 µM·h"}

* * *

assay: mouse plasma pharmacokinetic parameters, late-stage follow-up, in vivo study for V1a-R antagonist project, LC-MS (AID 743028); conditions: C57Bl6 mouse plasma PK, IV/PO, IV dosing 1 mg/kg, plasma exposure
reportedProperty: AUC last (µM·h)

{"smilesStr": "O=C(C1CCN(c2ccc(Cl)cn2)CC1)N(CC1CC1)c1ccc(Cl)cc1", "reportedProperty": "AUC last", "measuredResult": 10.5}

* * *

test: mouse plasma pharmacokinetic parameters, late-stage follow-up, in vivo study for V1a-R antagonist project, LC-MS (AID 743028); settings: C57Bl6 mouse plasma PK, IV/PO, PO dosing 10 mg/kg, time to peak

{"smilesStr": "O=C(C1CCN(c2ccc(Cl)cn2)CC1)N(CC1CC1)c1ccc(Cl)cc1", "Tmax, min": 40}

* * *

test: mouse plasma pharmacokinetic parameters, late-stage follow-up, in vivo study for V1a-R antagonist project, LC-MS (AID 743028); conditions: C57Bl6 mouse plasma PK, IV/PO, PO dosing 10 mg/kg, oral bioavailability
reportedProperty: bioavailability (%)

{"smilesStr": "O=C(C1CCN(c2ccc(Cl)cn2)CC1)N(CC1CC1)c1ccc(Cl)cc1", "reportedProperty": "bioavailability", "measuredResult": 6.54}
